- assay text: Single-dose escalation pharmacokinetics in volunteers
- Type: in vivo, human
- run conditions: plasma; single oral dose 40 mg free base equivalent; human; mean, n = 6
readout type: MRT (h)
// note: answer is a bare numeric in h

Given the compound CS(=O)(=O)O.Cc1nc(N(C)C(=O)Cc2ccc(-c3ccccn3)cc2)sc1S(N)(=O)=O [mono mesylate monohydrate salt] , what is its reported MRT?
94

---

- assay text: Single-dose escalation pharmacokinetics in volunteers
- Type: in vivo, human
- run conditions: female, plasma; single oral dose 80 mg free base equivalent, females; human; median, n = 6; read-out: tmax
readout type: Tmax
The number alone won't do; follow it with the unit.

Which Tmax is reported for this compound? CS(=O)(=O)O.Cc1nc(N(C)C(=O)Cc2ccc(-c3ccccn3)cc2)sc1S(N)(=O)=O [mono mesylate monohydrate salt]
4 h
